Every entry's value here was drawn from patent US10696672B2.

Give measured IC50 for each item. Keep answers brief.
- target under test: recombinant human integrin αvβ6 (Homo sapiens (Human), UniProt P06756+P18564)
- Sequence (P06756 31-992): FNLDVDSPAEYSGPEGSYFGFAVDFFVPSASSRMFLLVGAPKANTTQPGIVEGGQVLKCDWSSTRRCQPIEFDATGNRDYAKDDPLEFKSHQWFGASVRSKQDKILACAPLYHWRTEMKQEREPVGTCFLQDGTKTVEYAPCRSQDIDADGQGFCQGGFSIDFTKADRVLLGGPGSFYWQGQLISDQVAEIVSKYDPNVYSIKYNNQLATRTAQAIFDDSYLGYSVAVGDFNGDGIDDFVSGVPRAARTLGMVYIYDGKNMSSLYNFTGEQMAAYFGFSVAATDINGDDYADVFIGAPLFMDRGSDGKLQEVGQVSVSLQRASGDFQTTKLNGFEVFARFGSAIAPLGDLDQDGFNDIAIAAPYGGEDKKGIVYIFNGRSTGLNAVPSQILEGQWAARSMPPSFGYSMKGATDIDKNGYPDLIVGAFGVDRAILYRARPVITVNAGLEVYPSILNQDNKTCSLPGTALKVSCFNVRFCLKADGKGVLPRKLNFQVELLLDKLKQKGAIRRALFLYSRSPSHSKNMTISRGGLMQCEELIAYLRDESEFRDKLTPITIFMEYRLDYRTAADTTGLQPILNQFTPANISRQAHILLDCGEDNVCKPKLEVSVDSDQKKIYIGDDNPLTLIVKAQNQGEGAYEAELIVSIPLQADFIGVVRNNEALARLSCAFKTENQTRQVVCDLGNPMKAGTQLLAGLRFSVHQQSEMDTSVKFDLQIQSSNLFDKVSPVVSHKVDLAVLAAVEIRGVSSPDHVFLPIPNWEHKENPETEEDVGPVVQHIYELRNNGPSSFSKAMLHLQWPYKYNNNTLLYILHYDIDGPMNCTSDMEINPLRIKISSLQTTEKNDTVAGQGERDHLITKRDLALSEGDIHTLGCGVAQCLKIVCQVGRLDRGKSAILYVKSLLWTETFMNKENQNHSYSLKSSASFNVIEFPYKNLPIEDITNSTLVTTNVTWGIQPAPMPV
- Sequence (P18564 22-707): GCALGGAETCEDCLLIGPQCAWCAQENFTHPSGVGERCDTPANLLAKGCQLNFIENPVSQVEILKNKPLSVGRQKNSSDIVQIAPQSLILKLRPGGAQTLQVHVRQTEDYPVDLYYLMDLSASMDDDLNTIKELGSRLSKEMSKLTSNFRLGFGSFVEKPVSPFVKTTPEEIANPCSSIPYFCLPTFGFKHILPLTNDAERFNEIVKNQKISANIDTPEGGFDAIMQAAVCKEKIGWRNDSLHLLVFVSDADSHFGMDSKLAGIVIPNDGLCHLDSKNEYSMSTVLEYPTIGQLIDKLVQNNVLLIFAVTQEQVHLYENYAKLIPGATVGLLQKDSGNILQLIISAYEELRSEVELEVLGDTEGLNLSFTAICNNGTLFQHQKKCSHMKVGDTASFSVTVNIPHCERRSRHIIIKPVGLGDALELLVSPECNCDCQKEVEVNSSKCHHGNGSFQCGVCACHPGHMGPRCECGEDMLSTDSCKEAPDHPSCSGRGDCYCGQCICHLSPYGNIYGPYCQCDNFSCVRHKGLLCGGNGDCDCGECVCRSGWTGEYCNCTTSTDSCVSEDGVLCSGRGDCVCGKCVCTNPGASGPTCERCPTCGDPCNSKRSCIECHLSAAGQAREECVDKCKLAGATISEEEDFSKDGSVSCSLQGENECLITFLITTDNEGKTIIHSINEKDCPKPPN
- procedure summary: Solid phase integrin αvβ6 binding assay
- recorded conditions: plate-coated integrin; recombinant TGFβ1 LAP 0.67 ug/ml as ligand; 2 hours at 25° C.; read-out: αvβ6 Inhibition IC50 (nM) - range

Query block: GET /values?readout=IC50&item= `O=C(N[C@H](CCN1CC[C@@H](CCc2ccc3c(n2)NCCC3)C1)C(=O)O)c1c(Cl)cccc1Cl`
Result block: 250 to 1000 nM

Query block: Fill in: IC50 of `CC(C)(Cc1ccccc1)C(=O)N[C@@H](CCN1CC[C@@H](CCc2ccc3c(n2)NCCC3)C1)C(=O)O` is ___
Result block: < 50 nM

Query block: Look up IC50: `CC(C)(Cc1ccccc1)C(=O)N[C@@H](CCN1CC(OCCc2ccc3c(n2)NCCC3)C1)C(=O)O`
Result block: 250 to 1000 nM

Query block: Item `CC(C)(C(=O)N[C@@H](CCN1CC(OCCc2ccc3c(n2)NCCC3)C1)C(=O)O)c1cccnc1` has what recorded IC50?
Result block: 250 to 1000 nM

Query block: Record request: IC50 value, item `Cn1cc(-c2nn(C)c3c(C(=O)N[C@@H](CCN4CC[C@@H](CCc5ccc6c(n5)NCCC6)C4)C(=O)O)cccc23)cn1`
Result block: 250 to 1000 nM

Query block: Given the compound Cn1ncc2ccc(C(=O)N[C@@H](CCN3CC[C@@H](CCc4ccc5c(n4)NCCC5)C3)C(=O)O)cc21 [Compound 24a] , what is its reported IC50?
Result block: < 50 nM

Query block: Param item = CCC(CC)C(=O)N[C@@H](CCN1C2CCC1C(CCc1ccc3c(n1)NCCC3)C2)C(=O)O (stereo partly shown) ; retrieve measured IC50.
Result block: > 1000 nM

* * *

Would you kindly list IC50 for each of these molecules?
- target under test: recombinant human integrin αvβ6 (Homo sapiens (Human), UniProt P06756+P18564)
- procedure summary: Solid phase integrin αvβ6 binding assay
- recorded conditions: plate-coated integrin; recombinant TGFβ1 LAP 0.67 ug/ml as ligand; 2 hours at 25° C.; read-out: αvβ6 Inhibition IC50 (nM) - range

Query block: Fill in: IC50 of CC(C)(C(=O)N[C@@H](CCN1CC(CCc2ccc3c(n2)NCCC3)C1)C(=O)O)c1cccnc1 [Compound 144] is ___
Result block: > 1000 nM

Query block: Give its IC50 value. Item: Cn1cc(-c2cccc(C(=O)N[C@@H](CCN3CC[C@@H](CCc4ccc5c(n4)NCCC5)C3)C(=O)O)c2)cn1 [Compound 58]
Result block: < 50 nM

Query block: Param item = O=C(N[C@H](CCN1CC[C@@H](CCc2ccc3c(n2)NCCC3)C1)C(=O)O)c1cccc(-c2ccccc2)c1 [Compound 83] ; retrieve measured IC50.
Result block: < 50 nM

Query block: Requested read-out: IC50. Entry: O=C(N[C@@H](CCN1CC(OCCc2ccc3c(n2)NCCC3)C1)C(=O)O)[C@H]1CCN(c2ccccn2)C1 [Compound 132]
Result block: 50 to 250 nM

Query block: Returns the measured IC50 for the input molecule. Input: O=C(N[C@@H](CCN1CC[C@@](F)(CCc2ccc3c(n2)NCCC3)C1)C(=O)O)c1c(Cl)cccc1Cl [Compound 63]
Result block: 50 to 250 nM

Query block: Requested field: IC50. Item: O=C(N[C@@H](CCN1CC[C@@H](CCc2ccc3c(n2)NCCC3)C1)C(=O)O)[C@@H]1CCN(c2ccccn2)C1 [Compound 47]
Result block: < 50 nM

Query block: Need IC50 of O=C(N[C@@H](CCN1CC[C@@H](CCc2ccc3c(n2)NCCC3)C1)C(=O)O)c1ccc(C(F)(F)F)cc1 [Compound 10a] , thanks.
Result block: < 50 nM

Query block: Item under review: O=C(N[C@@H](CCN1CC[C@H](CCc2ccc3c(n2)NCCC3)C1)C(=O)O)c1c(Cl)cccc1Cl [Compound 146] . Reported IC50?
Result block: < 50 nM

Query block: # query: IC50 of entry CC(C)Cn1ncc2c(C(=O)N[C@@H](CCN3CC[C@@H](CCc4ccc5c(n4)NCCC5)C3)C(=O)O)cccc21 [Compound 61]
Result block: < 50 nM

Query block: Could you share which IC50 value was measured for O=C(O)[C@H](CCN1CC[C@@H](CCc2ccc3c(n2)NCCC3)C1)NC(=O)[C@@H]1CCCN1CC1CCC1 [Compound 92] ?
Result block: < 50 nM

Query block: # get_value(readout='IC50', item= COCCOc1cccc(C(=O)N[C@@H](CCN2CCC[C@@](F)(CCc3ccc4c(n3)NCCC4)C2)C(=O)O)c1 [Compound 100] )
Result block: 50 to 250 nM

Query block: Form field: reported IC50 of O=C(N[C@@H](CCN1CC[C@](F)(CCc2ccc3c(n2)NCCC3)C1)C(=O)O)c1c(Cl)cccc1Cl [Compound 64]
Result block: 50 to 250 nM

Query block: Reported IC50, molecule Cn1nccc1-c1cccc(C(=O)N[C@H](CCN2CC[C@@H](CCc3ccc4c(n3)NCCC4)C2)C(=O)O)c1 [Compound 86] : ____
Result block: < 50 nM

Query block: So what's the measured IC50 for this one? O=C(N[C@@H](CCN1CCCC(CCc2ccc3c(n2)NCCC3)C1)C(=O)O)c1ccccc1 (some centres unmarked) [Compound 54]
Result block: < 50 nM

* * *

- target under test: recombinant human integrin αvβ6 (Homo sapiens (Human), UniProt P06756+P18564)
- procedure summary: Solid phase integrin αvβ6 binding assay
- recorded conditions: plate-coated integrin; recombinant TGFβ1 LAP 0.67 ug/ml as ligand; 2 hours at 25° C.; read-out: αvβ6 Inhibition IC50 (nM) - range
endpoint label: IC50

Query block: Reported IC50, molecule CC(C)(C)C(=O)N[C@H](CCN1CC[C@@H](CCc2ccc3c(n2)NCCC3)C1)C(=O)O [Compound 1c] : ____
Result block: < 50 nM

Query block: # get_value(readout='IC50', item= O=C(N[C@H](CCN1CC[C@H](CCc2ccc3c(n2)NCCC3)C1)C(=O)O)c1c(Cl)cccc1Cl [Compound 147] )
Result block: > 1000 nM

Query block: Look up IC50: O=C(N[C@@H](CCN1CC[C@@H](CCc2ccc3c(n2)NCCC3)C1)C(=O)O)c1cccc(-c2ccccc2)c1 [Compound 56]
Result block: < 50 nM

Query block: Which IC50 is reported for this molecule? O=C(N[C@@H](CCN1CC[C@@H](CCc2ccc3c(n2)NCCC3)C1)C(=O)O)C1CCC(F)(F)CC1 [Compound 21a]
Result block: < 50 nM

* * *

- target under test: recombinant human integrin αvβ6 (Homo sapiens (Human), UniProt P06756+P18564)
- procedure summary: Solid phase integrin αvβ6 binding assay
- recorded conditions: plate-coated integrin; recombinant TGFβ1 LAP 0.67 ug/ml as ligand; 2 hours at 25° C.; read-out: αvβ6 Inhibition IC50 (nM) - range
endpoint label: IC50

Query block: Entry Cc1cc(C)n(-c2cccc(C(=O)N[C@@H](CCN3CCC[C@@](F)(CCc4ccc5c(n4)NCCC5)C3)C(=O)O)c2)n1 [Compound 53] , system recombinant human integrin αvβ6 (Homo sapiens (Human), UniProt P06756+P18564): what IC50 was measured?
Result block: < 50 nM

Query block: Find the measured IC50: item O=C(N[C@@H](CCN1CC[C@@H](CCc2ccc3c(n2)NCCC3)C1)C(=O)O)c1cccc(-c2cccs2)c1 [Compound 55] , target or system recombinant human integrin αvβ6 (Homo sapiens (Human), UniProt P06756+P18564).
Result block: < 50 nM

Query block: Item: Cc1cc(C)n(-c2cccc(C(=O)N[C@@H](CCN3CC[C@@H](OCc4ccc5c(n4)NCCC5)C3)C(=O)O)c2)n1 [Compound 113] Test system: recombinant human integrin αvβ6 (Homo sapiens (Human), UniProt P06756+P18564) Read-out: IC50 Value: ?
Result block: > 1000 nM

Query block: Please tell me: IC50 of O=C(N[C@@H](CCN1CC[C@@H](OCc2ccc3c(n2)NCCC3)C1)C(=O)O)c1ccccc1 [Compound 112] , system recombinant human integrin αvβ6 (Homo sapiens (Human), UniProt P06756+P18564)?
Result block: > 1000 nM

Query block: Can you look up IC50 on recombinant human integrin αvβ6 (Homo sapiens (Human), UniProt P06756+P18564) for O=C(N[C@@H](CCN1CC[C@@H](CCc2ccc3c(n2)NCCC3)C1)C(=O)O)c1cccnc1 [Compound 19a] ?
Result block: 50 to 250 nM

Query block: Look up IC50 with recombinant human integrin αvβ6 (Homo sapiens (Human), UniProt P06756+P18564) for this compound: O=C(N[C@@H](CCN1CC[C@@H](CCc2ccc3c(n2)NCCC3)C1)C(=O)O)c1cccc(N2CCOCC2)c1 [Compound 15a]
Result block: < 50 nM

Query block: Hi! What's the reported IC50 for O=C(NC(CCN1CC[C@@H](CCc2ccc3c(n2)NCCC3)C1)C(=O)O)C1CCN(C2CC2)CC1 (stereo partly shown) [23a and 23c] on recombinant human integrin αvβ6 (Homo sapiens (Human), UniProt P06756+P18564)?
Result block: 50 to 250 nM
